These data points were gathered from PubChem BioAssay (NCI).

Assay: NCI Yeast Anticancer Drug Screen. Data for the sgs1 mgt1 strain (AID 161);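 note: 0% = growth of cultures given vehicle only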
Conditions: S. cerevisiae sgs1 mgt1 strain, at 50.0 µM, stronger effect = higher value
This is part of a sample that, as a whole, favours compounds with a hit. Of some 79,000 tested, about 15% had one in any assay.
Entries and their growth inhibition

Compound: Cc1nnc2cc(C(=O)O)c3ccccc3n2c1=O
Units: %
growth inhibition: -13.4

Compound: CCCCN(Cc1ccccc1)C(=O)NC(C)(C)C
Units: %
growth inhibition: 8.1

Compound: CC1(C)COC(c2ccc3ccccc3c2)OC1
Units: %
growth inhibition: -6.2

Compound: O=CC(=O)c1ccc(Br)cc1
Units: %
growth inhibition: 13.2

Compound: O=C(O)c1cccc2c1C1CCC2c2cccc(C(=O)O)c21
Units: %
growth inhibition: 15.6

Compound: CCCCCCCCC(=O)N1CCOCC1
Units: %
growth inhibition: 18.3

Compound: Cn1cc(Cc2ccc(-c3ccccc3)cc2)c(=O)c(Cc2ccc(-c3ccccc3)cc2)c1
Units: %
growth inhibition: -2.9

Compound: CC1(C)COC(c2c(F)cccc2Cl)=N1
Units: %
growth inhibition: 6.2

Compound: Cc1ccc2c(c1)[nH]c(=S)n2/C=C1\C(=O)Oc2ccccc2C1=O
Units: %
growth inhibition: -44.4

Compound: CCN(CC)CCC(=O)O[C@H]1CC[C@H](CC(C)[C@H]2CC(=O)C(C)C=C(C)[C@H](OC(=O)CCN(CC)CC)C(OC)C(=O)[C@@H](C)CC(C)/C=C/C=C/C=C(C)C(OC)CC3CC[C@H](C)[C@](O)(O3)C(=O)C(=O)N3CCCCC3C(=O)O2)CC1OC (some centres not stated)
Units: %
growth inhibition: 92.8

Compound: CCCCc1c2c(nc3c1CCCC3=O)C(=O)CCC2
Units: %
growth inhibition: -14.7

Compound: CC1CC[P+](C)(c2ccccc2)c2ccccc21 (configuration not stated)
Units: %
growth inhibition: 1.6

Compound: Cc1cccc(C2=N/C(=C\c3ccc4c(c3)OC(O)O4)C(=O)O2)c1 (configuration not stated)
Units: %
growth inhibition: 4.95

Compound: CC1CCC(C(C)(C)c2ccccc2)C(=O)C1 (configuration not stated)
Units: %
growth inhibition: -9.4

Compound: O=C(O)c1cccc([N+](=O)[O-])c1Nc1cccc(C(F)(F)F)c1
Units: %
growth inhibition: 32.5

Compound: CC(C)CC1=C(N(C)C)C(=O)C=C(N(C)C)C1=O
Units: %
growth inhibition: 10.2

Compound: O=C1c2ccccc2C2(O)NC(=S)N(c3ccccc3)C12O (configuration not stated)
Units: %
growth inhibition: 4.95

Compound: O=C1CC2(CCCC2)CC(=O)N1
Units: %
growth inhibition: -15.6

Compound: CN(N)c1cc(=O)n(C)c(=O)n1C
Units: %
growth inhibition: -10.7

Compound: CCNC(=S)N/N=C/c1cc(OC)ccc1O
Units: %
growth inhibition: 0.2

Compound: CC(C)c1sc([S-])n[n+]1-c1ccccc1
Units: %
growth inhibition: -9.5

Compound: Nc1ccc(CC(N)C(=O)O)cc1 (configuration not stated)
Units: %
growth inhibition: -22.3

Compound: CC(=O)Nc1ncn(C)c1S(N)(=O)=O
Units: %
growth inhibition: -1.45

Compound: CC1C2CC(CC2O)C1(C)C (configuration not stated)
Units: %
growth inhibition: 18.1

Compound: Cc1cccc(NC(=O)Nc2ccccc2Cl)c1C
Units: %
growth inhibition: 0.65

Compound: COc1cc2cc3c4cc(OC)c(OC)cc4cc[n+]3c(CCC(=O)O)c2cc1OC (tested in a mixture with another compound)
Units: %
growth inhibition: -8.25

Compound: Cc1cc(C)c(NC(=O)C(Br)C(Br)c2ccccc2)c(C)c1 (configuration not stated)
Units: %
growth inhibition: 5.1

Compound: N#C/C(=C\c1ccco1)C(=O)Nc1ccc(Br)cc1
Units: %
growth inhibition: 1.65

Compound: N#CC1=C(c2ccccc2)NN(Cc2ccccc2)C(c2ccc(Cl)cc2)CC1=O (configuration not stated)
Units: %
growth inhibition: 8.25

Compound: Cc1ccc(S(=O)(=O)OCC23CCC(CC2)CC3)cc1
Units: %
growth inhibition: -26.2

Compound: Cn1c2ccccc2c2nnc(N/N=C/c3cccs3)nc21
Units: %
growth inhibition: -9.6

Compound: CC(C)CNc1ncnc2c1ncn2C
Units: %
growth inhibition: -4

Compound: CCCCCCCCCCCCCCCCCCOc1c(Cl)c(Cl)c(Cl)c(Cl)c1Cl
Units: %
growth inhibition: -8.25

Compound: COc1cccc(CCNC(=O)Cc2ccccc2CCO)c1
Units: %
growth inhibition: -46.8

Compound: O=C(/C=N\O)Nc1ccccc1O
Units: %
growth inhibition: -24.4

Compound: COC(=O)CC(NC(=O)CNC(=O)OCc1ccccc1)C(=O)NCC(=O)Oc1ccc([N+](=O)[O-])cc1 (configuration not stated)
Units: %
growth inhibition: 18.8

Compound: C/C(=C/C=C(c1ccccc1)c1ccccc1)C1CCC2C3CCC4CC5CCC4(C)C3(O5)C(=O)CC12C (configuration not stated)
Units: %
growth inhibition: 73

Compound: CC1C(=O)OC2C1CCC1(C)C=CC(=O)C(C)C21 (configuration not stated)
Units: %
growth inhibition: 1.15

Compound: O=c1[nH]cc([N+](=O)[O-])c(=O)[nH]1
Units: %
growth inhibition: 8.25

Compound: CC1(C)OC(=O)CC1CCN (configuration not stated)
Units: %
growth inhibition: -7.05

Compound: Cc1cc(C23OC4COC(C)(C)OC4C2OC(C)(C)O3)nc2ccccc12 (configuration not stated)
Units: %
growth inhibition: 18.6

Compound: Cc1ccc(C(=O)Nc2ccc([N+](=O)[O-])cc2)cc1
Units: %
growth inhibition: -0.35

Compound: Cc1ccc(N=C2SC(=NN(C)C)SC2=Nc2ccc(C)cc2)cc1
Units: %
growth inhibition: 8.35

Compound: O=C(CCc1cc(O)cc(O)c1)NCCc1cc(O)cc(O)c1
Units: %
growth inhibition: 17.4

Compound: Cc1ccc(S(=O)(=O)Nc2ccccc2C(=O)c2ccc(C)c(C)c2)cc1
Units: %
growth inhibition: -9.9

Compound: COc1ccc2nc(C)cc(N/N=C/c3cccc(C)n3)c2c1
Units: %
growth inhibition: -1.55

Compound: O=C(C1C2C=CC(C2)C1C(=O)N1CCCCC1)N1CCCCC1 (configuration not stated)
Units: %
growth inhibition: 13.2

---

Entries and their growth inhibition
Test: NCI Yeast Anticancer Drug Screen. Data for the bub3 strain (AID 167)
Details: S. cerevisiae bub3 mutant strain, at 50.0 µM, stronger effect = higher value
Protocol: Growth inhibition of yeast strains with defined genetic alterations is measured as a screen for potential anti-cancer activity. Selected strains with alterations in DNA damage repair or cell cycle control were exposed to compounds and growth inhibition was measured relative to vehicle treated controls. The strain used in this assay is bub3
Compounds without any hit were thinned out: in the full panel of roughly 79,000, 15% have a hit.

Compound: CC(=O)N=C1CSc2ccccc2N1C
growth inhibition / %: -15.5

Compound: CC1OC(O[C@@H]2OC=C(C=O)[C@@]3(O)CC[C@H](C)[C@@H]23)C(O)C(O)C1O (stereo partly specified)
growth inhibition / %: -6.1

Compound: O=C(CCC(=O)Nc1ccccc1[N+](=O)[O-])CC(=O)c1ccc(Br)cc1
growth inhibition / %: -13.1

Compound: COC(=O)c1cc2cccn2cn1
growth inhibition / %: -27.9

Compound: Cc1ccccc1/C=C/C(=O)c1ccccc1
growth inhibition / %: 11.4

Compound: COc1cc(/C=C2\CCC(CN(C)C)C2=O)ccc1OC(=O)c1ccccc1 (stereo unspecified)
growth inhibition / %: 85.2

---

Assay: NCI Yeast Anticancer Drug Screen. Data for the rad50 strain (AID 155);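 note: 0% = growth of vehicle-only cultures of the same strain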
Details: S. cerevisiae rad50 strain growth inhibition; at 50.0 µM
Compounds without any hit were thinned out: in the full panel of roughly 79,000, 15% have a hit. Active and inactive are the calls of the source. Rule as the data show it: active = growth inhibition above about 70%; inactive = the rest.
Outcome codes: active, inactive

Molecule: CNn1c(-c2ccccc2)n[nH]c1=O
Assigned class: inactive
//
Molecule: Cc1nnc2cc(C(=O)O)c3ccccc3n2c1=O
Assigned class: inactive
//
Molecule: COC(=O)c1ccc2c(c1)nnn2C(C)=O
Assigned class: inactive
//
Molecule: O=C1OC(=O)c2ccc(SCC(O)CCl)c3cccc1c23 (stereo unspecified)
Assigned class: active
//
Molecule: COCc1cc(CC(C)=O)nc(C/C=N/NC(N)=O)n1
Assigned class: inactive
//
Molecule: COc1ccc(SC(N(C)C)=[N+](C)C)cc1
Assigned class: inactive
//
Molecule: CCOC(=O)C12CCCC1(O)N(NC(=O)c1ccccc1)C(C)=C2C(=O)OC (stereo unspecified)
Assigned class: inactive
//
Molecule: O=C1c2ccccc2C(=O)N1/N=C1/SC(=Nc2ccccc2)C(=Nc2ccccc2)N1c1ccccc1
Assigned class: inactive
//
Molecule: O=C(N/C(=C\c1ccccc1Cl)c1nc2ccccc2[nH]1)c1ccccc1
Assigned class: inactive
//
Molecule: CC(C)=CCSC(N)N
Assigned class: inactive
//
Molecule: CCN(CC)CCOC(=O)c1ccc(NC(=O)OCCC(C)(C)CCOC(=O)Nc2ccc(C(=O)OCCN(CC)CC)cc2)cc1
Assigned class: inactive
